molecular target: Syk kinase (Homo sapiens, UniProt P43405); construct: purchased; assay: Syk kinase inhibition, Caliper LabChip off-chip mobility-shift kinase assay; assay type: biochemical; settings: read-out: Syk Enzyme IC50
Measured Property: IC50 (nM)

The following compounds have reported results that may help.
{"Compound": "CCC(C)Nc1nc(Nc2cc(C)ccn2)cc2cc[nH]c(=O)c12 (centres unmarked) [compound 262]", "Measured Property": "IC50", "Observed Result": 201}
{"Compound": "C=C(C)c1cc2cc[nH]c(=O)c2c(Nc2ccc(C3CCN(C4CC4)CC3)c(C)c2)n1 [compound 229]", "Measured Property": "IC50", "Observed Result": 743}
{"Compound": "Cc1ccnc(Nc2cc3cc[nH]c(=O)c3c(NCC(F)(F)F)n2)c1 [compound 516]", "Measured Property": "IC50", "Observed Result": 152}
{"Compound": "CC(C)CNc1nc(Nc2ccccn2)cc2cc[nH]c(=O)c12 [compound 288]", "Measured Property": "IC50", "Observed Result": 694}
{"Compound": "CCN1CCN(c2n[nH]c3cc(Nc4nc(-c5cncnc5)cc5cc[nH]c(=O)c45)ccc23)CC1 [compound 199]", "Measured Property": "IC50", "Observed Result": 20}

1: CCC(C)Nc1nc(Nc2ccc(F)cn2)cc2cc[nH]c(=O)c12 (centres unmarked) [compound 264]
2: CCN1CCN(CCc2ccc(Nc3nc(-c4cncnc4)cc4c(F)c[nH]c(=O)c34)cc2)CC1 [compound 438]
3: C[C@@H](O)CNc1nc(Nc2cnccn2)cc2ccn(C)c(=O)c12 [compound 470]
Exam item: list the entries in increasing order of IC50. List the labels, following the order given in the request.
3, 2, 1
(3: 82 nM, 2: 289 nM, 1: 423 nM)

----------
molecular target: Syk kinase (Homo sapiens); construct: purchased; experiment: Syk kinase inhibition, Caliper LabChip off-chip mobility-shift kinase assay; assay type: biochemical; settings: Caliper LabChip assay; read-out: Syk Enzyme IC50
pIC50: −log10 of the molar value.
Measured Property: pIC50

The following molecules have reported results that may help.
{"Molecule": "Cc1ccnc(Nc2cc3ccn(C(C)C)c(=O)c3c(N[C@H]3CC[C@H](O)CC3)n2)c1", "Experimental Target": "Syk kinase (Homo sapiens)", "pIC50": 7.29}
{"Molecule": "Cn1cc2cc(Nc3nc(Nc4cnccn4)cc4ccn(CCO)c(=O)c34)ccc2n1", "Experimental Target": "Syk kinase (Homo sapiens)", "pIC50": 6.99}
{"Molecule": "CCn1ccc2cc(Nc3cc(C)ccn3)nc(N[C@H]3CC[C@@H](CO)C3)c2c1=O", "Experimental Target": "Syk kinase (Homo sapiens)", "pIC50": 7.48}
{"Molecule": "CC(C)(C)Nc1nc(Nc2cc(C3CCNCC3)ncn2)cc2ccn(CCO)c(=O)c12", "Experimental Target": "Syk kinase (Homo sapiens)", "pIC50": 7.02}

I: CC1(Nc2nc(Nc3cc(C(C)(C)O)ncn3)cc3ccn(CC(O)CO)c(=O)c23)CC1 (centres unmarked)
II: CC(C)(C)Nc1nc(Nc2cnccn2)cc2ccn(CC(F)F)c(=O)c12
III: CCn1ccc2cc(Nc3cc(C)ccn3)nc(N[C@@H]3CC[C@H](CO)C3)c2c1=O [compound 794]
IV: CCn1ccc2cc(Nc3cnccn3)nc(N[C@@H]3CC[C@H](CO)C3)c2c1=O
Returns the items ordered by pIC50, from maximum to minimum. List the labels, following the order given in the request.
I, IV, III, II

----------
molecular target: Syk kinase (Homo sapiens); construct: purchased; assay: Syk kinase inhibition, Caliper LabChip off-chip mobility-shift kinase assay; format: biochemical; settings: read-out: Syk Enzyme IC50
Measured Property: IC50 (nM)

1: COc1cncc(-c2cc3cc[nH]c(=O)c3c(Nc3ccc(C4CCN(C(C)C(=O)NC5CC5)CC4)c(C)c3)n2)n1 (stereo not shown) [compound 121]
2: COC(=O)CCN1CCC(c2ccc(Nc3nc(-c4cncc(OC)n4)cc4cc[nH]c(=O)c34)cc2C)CC1 [compound 160]
Which of the two gives a bigger number for IC50: 1 or 2 ? Your answer should be the label attached to the chosen record.
1
(1: 183 nM, 2: 81 nM)

----------
target: Syk kinase (Homo sapiens, UniProt P43405); construct: purchased; experiment: Syk kinase inhibition, Caliper LabChip off-chip mobility-shift kinase assay; assay type: biochemical; conditions: Caliper LabChip assay; read-out: Syk Enzyme IC50
pIC50: −log10 of the molar value.
Measured Property: pIC50

{"Molecule": "CCn1ccc2cc(Nc3cnccn3)nc(NC3(CO)CCCC3)c2c1=O [compound 788]", "pIC50": 6.49}

I: NC(=O)Cn1ccc2cc(-c3cnc(N)nc3)nc(N[C@H]3C[C@@H](CO)C3)c2c1=O [compound 746]
II: Cc1ccnc(Nc2cc3ccn(CCO)c(=O)c3c(NCC(C)(C)C)n2)c1 [compound 814]
III: [2H]C([2H])([2H])n1ccc2cc(Nc3cc(Cl)ccn3)nc(NC(C)(C)CO)c2c1=O [compound 786]
IV: CCn1ccc2cc(Nc3cc(C)ccn3)nc(N)c2c1=O [compound 801]
V: CC(C)(C)Nc1nc(Nc2cnccn2)cc2ccn(CCC(N)=O)c(=O)c12 [compound 661]
Exam item: list the entries in increasing order of pIC50. List the labels, following the order given in the request.
IV, II, III, I, V
(IV: 5.72, II: 6.41, III: 7.15, I: 7.36, V: 8.00)

A: CC(O)c1cc(Nc2cc3ccn(CCO)c(=O)c3c(NC(C)(C)C)n2)ncn1 (stereo not shown) [compound 727]
B: C/C(=N\O)c1ccnc(Nc2cc3ccn(CCO)c(=O)c3c(NC(C)(C)C)n2)c1 [compound 685]
C: Cc1ccnc(Nc2cc3ccn(CCO)c(=O)c3c(NC3(C)CCC3)n2)c1 [compound 599]
Returns the items ordered by pIC50, from maximum to minimum. List the labels, following the order given in the request.
A, B, C

P: CCn1ccc2cc(Nc3cnccn3)nc(NS(C)(=O)=O)c2c1=O [compound 745]
Q: CC(C)(C)Nc1nc(Nc2cc(C(C)(C)O)ncn2)cc2ccn(CCS(C)(=O)=O)c(=O)c12 [compound 739]
R: CC(C)(C)Nc1nc(Nc2cc(C(F)(F)F)ccn2)cc2ccn(CCO)c(=O)c12 [compound 901]
S: CCn1ccc2cc(Nc3cnccn3)nc(NC3CCS(=O)(=O)C3)c2c1=O (stereo not shown) [compound 971]
Exam item: list the entries in increasing order of pIC50. List the labels, following the order given in the request.
R, S, P, Q

----------
target: Syk kinase (Homo sapiens); construct: purchased; assay: Syk kinase inhibition, Caliper LabChip off-chip mobility-shift kinase assay; assay type: biochemical; settings: read-out: Syk Enzyme IC50
pIC50: −log10 of the molar value.
Measured Property: pIC50

The following molecules have reported results that may help.
{"Molecule": "COCCNC(=O)c1ccc(Nc2nc(-c3cnc(C)nc3)cc3cc[nH]c(=O)c23)cc1", "Observed Result": 7.54}
{"Molecule": "CCn1ccc2cc(Nc3cc(C)ccn3)nc(N[C@@H]3CCC[C@@H]3O)c2c1=O", "Observed Result": 6.74}
{"Molecule": "COc1cncc(-c2cc3cc[nH]c(=O)c3c(Nc3ccc(C4CCN(CC(N)=O)CC4)c(C)c3)n2)n1", "Observed Result": 7.40}
{"Molecule": "C[C@@H](O)CNc1nc(-c2cnc(N)nc2)cc2cc[nH]c(=O)c12", "Observed Result": 6.85}
{"Molecule": "CNC(=O)C(C)(C)c1ccc(Nc2nc(-c3cnc4nccn4c3)cc3cc[nH]c(=O)c23)cc1", "Observed Result": 7.52}
{"Molecule": "COc1cncc(-c2cc3cc[nH]c(=O)c3c(Nc3ccc(CCN4CCN(C(C)=O)CC4)cc3)n2)n1", "Observed Result": 7.21}

I: COc1cncc(-c2cc3cc[nH]c(=O)c3c(Nc3ccc(C4CCN(CCO)CC4)c(C)c3)n2)n1
II: Nc1ncc(-c2cc3cc[nH]c(=O)c3c(NCC3CC3)n2)cn1
Select the item whose pIC50 value is smaller, choosing between I and II . Your answer should be the label attached to the chosen record.
II
(II: 6.42, I: 8.30)

----------
biological target: Syk kinase (Homo sapiens, UniProt P43405); construct: purchased; experiment: Syk kinase inhibition, Caliper LabChip off-chip mobility-shift kinase assay; format: biochemical; settings: Caliper LabChip assay; read-out: Syk Enzyme IC50
Measured Property: IC50 (µM)

{"Compound": "CCn1ccc2cc(-c3cnc(N)nc3)nc(N[C@H]3C[C@@H](CO)C3)c2c1=O", "IC50 (µM)": 0.007}
{"Compound": "CC(C)(C)Nc1nc(Nc2cc(C3=CCCCO3)ncn2)cc2ccn(CCO)c(=O)c12", "IC50 (µM)": 0.59}
{"Compound": "Nc1nc(Nc2cnccn2)cc2ccn(CCO)c(=O)c12", "IC50 (µM)": 0.651}
{"Compound": "[2H]C([2H])([2H])n1ccc2cc(Nc3cc(C)ccn3)nc(N[C@H]3CC[C@@H](CO)C3)c2c1=O", "IC50 (µM)": 0.041}
{"Compound": "Cc1ccnc(Nc2cc3ccn(C(C)C)c(=O)c3c(N[C@H]3CC[C@@H](O)CC3)n2)c1", "IC50 (µM)": 0.039}
{"Compound": "CC(C)(C)Nc1nc(Nc2cc(S(C)(=O)=O)ccn2)cc2ccn(CCO)c(=O)c12", "IC50 (µM)": 0.099}

P: CC1(Cn2ccc3cc(-c4cnc(N)nc4)nc(NC4CCOCC4)c3c2=O)COC1
Q: CC(C)(C)Nc1nc(Nc2cc(C3(O)COC3)ccn2)cc2ccn(CCO)c(=O)c12
R: CC(C)(C)Nc1nc(Nc2cnccn2)cc2ccn(CCC#N)c(=O)c12
Returns the items ordered by IC50, from maximum to minimum. List the labels, following the order given in the request.
P, R, Q
(P: 0.066 µM, R: 0.019 µM, Q: 0.012 µM)

A: CC1(Nc2nc(Nc3cc(C(C)(C)O)ccn3)cc3ccn(CC(N)=O)c(=O)c23)CC1
B: COC/C=C/c1cc(Nc2cc3ccn(CCO)c(=O)c3c(NC(C)(C)C)n2)ncn1
C: CC1(O)CN(Cc2cc(Nc3cc4ccn(CCO)c(=O)c4c(NC(C)(C)C)n3)ncc2F)C1
D: O=c1[nH]ccc2cc(Nc3cnccn3)nc(N[C@H]3CC[C@@H](O)CC3)c12
Returns the items ordered by IC50, from maximum to minimum. List the labels, following the order given in the request.
C, A, B, D
(C: 0.37 µM, A: 0.203 µM, B: 0.094 µM, D: 0.015 µM)
